Cited source for all entries: ChEMBL document CHEMBL1155434

Target: Alpha-1D adrenergic receptor (Homo sapiens, UniProt P25100)
Sequence (P25100 whole entry): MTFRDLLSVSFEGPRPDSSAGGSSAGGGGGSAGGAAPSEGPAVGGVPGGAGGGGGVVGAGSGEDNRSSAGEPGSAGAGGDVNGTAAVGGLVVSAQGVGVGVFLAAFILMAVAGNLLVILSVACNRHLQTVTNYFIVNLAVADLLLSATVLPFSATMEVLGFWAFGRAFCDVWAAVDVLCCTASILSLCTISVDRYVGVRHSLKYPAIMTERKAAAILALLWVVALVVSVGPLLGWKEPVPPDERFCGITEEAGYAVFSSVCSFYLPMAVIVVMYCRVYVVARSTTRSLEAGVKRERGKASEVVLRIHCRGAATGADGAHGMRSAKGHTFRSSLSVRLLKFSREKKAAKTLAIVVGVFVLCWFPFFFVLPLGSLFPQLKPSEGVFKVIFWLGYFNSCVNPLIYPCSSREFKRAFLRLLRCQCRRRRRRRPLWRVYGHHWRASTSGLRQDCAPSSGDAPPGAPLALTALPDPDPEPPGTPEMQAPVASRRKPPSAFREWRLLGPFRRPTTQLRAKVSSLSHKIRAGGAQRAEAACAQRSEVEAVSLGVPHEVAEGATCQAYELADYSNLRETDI
readout-name: pKi
By convention, pKi is the negative base-10 log of a molar concentration.

The compound listed as CC(C)Oc1ccccc1OCCNCC1COC(c2ccccc2)(c2ccccc2)O1 (racemic) shows pKi equal to 8.20

// field: pKi; key: Cc1ccccc1OCCNCC1COC(c2ccccc2)(c2ccccc2)O1 (racemic) ; value = 7.59

Sample COc1ccccc1OCCNCC1CSC(c2ccccc2)(c2ccccc2)S1 (racemic) ; pKi observed: 7.69

Short answer for c1ccc(-c2ccccc2OCCNCC2COC(c3ccccc3)(c3ccccc3)O2)cc1 (racemic) : pKi was 6.48

Looking up COc1cccc(OC)c1OCCNCC1COC(c2ccccc2)(c2ccccc2)O1 (racemic) , I see its pKi listed as 6.74

Value of measured pKi for the entry CCOc1ccccc1OCCNCC1COC(c2ccccc2)(c2ccccc2)O1 (racemic) : 8.17

Lookup result for COc1ccccc1CCCNCC1COC(c2ccccc2)(c2ccccc2)O1 (racemic) ; measured pKi: 7.30

###

Target: 5-hydroxytryptamine receptor 1A (Homo sapiens) (UniProt P08908)
Test: Agonist activity at human recombinant 5HT1A receptor expressed in human HeLa cells by [35S]GTPgammaS binding assay relative to serotonin
Type: functional, cell-based
Please mark fulfilled if the recorded Emax is equal to or greater than 20%, and not fulfilled if it falls below.

Task item: Determine whether measured Emax meets or exceeds 20% for COc1ccccc1CCCNCC1COC(c2ccccc2)(c2ccccc2)O1 (racemic)
Reply: not fulfilled

Task item: Is reported Emax greater than or equal to 20% here: CC(C)Oc1ccccc1OCCNCC1COC(c2ccccc2)(c2ccccc2)O1 (racemic)
Reply: fulfilled

Task item: Check if Emax >= 20% (inclusive). Item: COc1ccccc1OCCNCC1CSC(c2ccccc2)(c2ccccc2)O1 (racemic)
Reply: fulfilled

Task item: # check: Emax of c1ccc(OCCNCC2COC(c3ccccc3)(c3ccccc3)O2)cc1 (racemic) is greater than or equal to 20%
Reply: fulfilled

Task item: Textbook exercise: given the entry c1ccc(-c2ccccc2OCCNCC2COC(c3ccccc3)(c3ccccc3)O2)cc1 (racemic) , state whether its Emax is greater than or equal to 20%.
Reply: fulfilled

Task item: Threshold query (Emax >= 20%) on COc1ccccc1N1CCN(CCN2C(=O)CC3(CCCC3)CC2=O)CC1 [BMY-7378]
Reply: fulfilled

Task item: Is the recorded value of Emax equal to or greater than 20% for this compound? CCOc1ccccc1OCCNCC1COC(c2ccccc2)(c2ccccc2)O1 (racemic)
Reply: fulfilled

Task item: Exam item: decide whether the reported Emax for COc1cccc(OCCNCC2COC(c3ccccc3)(c3ccccc3)O2)c1 (racemic) is at least 20%.
Reply: not fulfilled

Task item: Test whether the compound COc1ccccc1OCCNCC1COC(c2ccccc2)(c2ccccc2)O1 (racemic) records Emax of 20% or higher.
Reply: fulfilled

###

Target: 5-hydroxytryptamine receptor 1A (Homo sapiens)
Assay: Agonist activity at human recombinant 5HT1A receptor expressed in human HeLa cells by [35S]GTPgammaS binding assay
Assay type: functional, cell-based
readout-name: pD2
The answer should be a number; do not append a unit.

Just so you know, measured pD2 for c1ccc(-c2ccccc2OCCNCC2COC(c3ccccc3)(c3ccccc3)O2)cc1 (racemic) came out at 7.82

pD2 reading for COc1ccccc1OCCNCC1CSC(c2ccccc2)(c2ccccc2)S1 (racemic) : 7.76

Kindly note the recorded pD2 for CC(C)Oc1ccccc1OCCNCC1COC(c2ccccc2)(c2ccccc2)O1 (racemic) , which is 9.08

Per the record, COc1cccc(OCCNCC2COC(c3ccccc3)(c3ccccc3)O2)c1 (racemic) has pD2 of 5.97

What the record says about COc1ccccc1CCCNCC1COC(c2ccccc2)(c2ccccc2)O1 (racemic) : pD2 is 5.92

###

Organism: Homo sapiens
Experiment: Selectivity ratio of pKi for human 5-HT1A receptor to pKi for human alpha1 adrenergic receptor
Exam item: assign criterion met to entries whose Ratio pKi is below 6 and criterion not met to entries at or above 6. Note that a value of exactly 6 receives criterion not met.

Task item: Dear colleague, could you confirm whether Ratio pKi of COc1cccc(OCCNCC2COC(c3ccccc3)(c3ccccc3)O2)c1OC (racemic) falls below 6? Thanks.
Reply: criterion not met

Task item: Record Cc1ccccc1OCCNCC1COC(c2ccccc2)(c2ccccc2)O1 (racemic) : is its Ratio pKi strictly below 6?
Reply: criterion met

Task item: Report whether reported Ratio pKi is lower than 6 (strictly) for COc1cc(OC)cc(OCCNCC2COC(c3ccccc3)(c3ccccc3)O2)c1 (racemic)
Reply: criterion met

Task item: Strictly below 6 in Ratio pKi? COc1ccc(OCCNCC2COC(c3ccccc3)(c3ccccc3)O2)cc1OC (racemic)
Reply: criterion met

###

For each of the molecules below, state its pD2.
Target: UniProt:P08908
Test: Agonist activity at human recombinant 5HT1A receptor expressed in human HeLa cells by [35S]GTPgammaS binding assay
Assay type: functional, cell-based
Kindly provide the number alone.

Measured pD2 of CCOc1ccccc1OCCNCC1COC(c2ccccc2)(c2ccccc2)O1 (racemic) : 9.08

molecule COc1ccccc1N1CCN(CCN2C(=O)CC3(CCCC3)CC2=O)CC1 [BMY-7378] , pD2 observed: 9.27

# pD2 of COc1ccccc1OCCNCC1COC(c2ccccc2)(c2ccccc2)O1 (racemic) = 7.36

Record c1ccc(OCCNCC2COC(c3ccccc3)(c3ccccc3)O2)cc1 (racemic) , field pD2: 8.8

Lab note: COc1ccccc1OCCNCC1CSC(c2ccccc2)(c2ccccc2)O1 (racemic) gave pD2 of 8.94

###

Molecular target: 5-hydroxytryptamine receptor 1A (Homo sapiens)
Sequence (P08908 whole entry): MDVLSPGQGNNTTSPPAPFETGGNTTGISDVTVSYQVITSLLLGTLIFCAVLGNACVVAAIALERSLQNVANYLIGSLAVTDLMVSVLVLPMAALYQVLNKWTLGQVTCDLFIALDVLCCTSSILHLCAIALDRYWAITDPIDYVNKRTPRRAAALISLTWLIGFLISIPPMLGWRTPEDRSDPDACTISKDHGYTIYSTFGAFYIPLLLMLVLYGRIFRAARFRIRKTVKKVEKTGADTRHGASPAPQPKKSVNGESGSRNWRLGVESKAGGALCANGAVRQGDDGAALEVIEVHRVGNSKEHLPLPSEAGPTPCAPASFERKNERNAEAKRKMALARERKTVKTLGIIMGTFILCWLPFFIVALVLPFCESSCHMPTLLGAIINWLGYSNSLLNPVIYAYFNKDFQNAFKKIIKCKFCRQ
For each of the compounds below, state its Ki.
Answer in nM, number only, no unit symbol.

In plain terms, c1ccc(-c2ccccc2OCCNCC2COC(c3ccccc3)(c3ccccc3)O2)cc1 (racemic) has a documented Ki of 2.19

The compound identified as COc1ccccc1OCCNCC1CSC(c2ccccc2)(c2ccccc2)S1 (racemic) registered its Ki at 0.129

Record COc1cccc(OC)c1OCCNCC1COC(c2ccccc2)(c2ccccc2)O1 (racemic) , field Ki: 53.7

Entry CCOc1ccccc1OCCNCC1COC(c2ccccc2)(c2ccccc2)O1 (racemic) — recorded Ki = 0.891

Recorded Ki (compound c1ccc(OCCNCC2COC(c3ccccc3)(c3ccccc3)O2)cc1 (racemic) ): 3.55

So, COc1ccccc1OCCNCC1CSC(c2ccccc2)(c2ccccc2)O1 (racemic) ? Its Ki was 1.02

Lookup result for COc1cccc(OCCNCC2COC(c3ccccc3)(c3ccccc3)O2)c1 (racemic) ; measured Ki: 2.63

Ki recorded for this compound, Cc1ccccc1OCCNCC1COC(c2ccccc2)(c2ccccc2)O1 (racemic) , is 8.32

Lab note: c1ccc(-c2cccc(OCCNCC3COC(c4ccccc4)(c4ccccc4)O3)c2)cc1 (racemic) gave Ki of 28.8

Item: COc1ccccc1CCCNCC1COC(c2ccccc2)(c2ccccc2)O1 (racemic) | Ki: 7.94
